Reference source: paper PMC6337671

Reported Long-Term Stability (−80 °C, 14 Days), RE values for a set of molecules
Assay: Stability of the nine components in rat plasma QC samples (auto-sampler, freeze-thaw, long-term)
Type: physicochemical
Conditions: rat plasma, HQC spiked 2000 ng/mL (4000 ng/mL for II), n = 5
Protocol: The stability of the nine components in rat plasma was investigated under a variety of storage and process conditions. […] Stability of the nine components were assessed under the condition of placing extracted plasma samples in auto-sampler for 6 h, as well as placing plasma samples within freeze-thaw three cycles and at −80 °C for 14 days. LQC, MQC and HQC samples with five replicates at each level were kept at the above conditions and analyzed against freshly prepared calibrators as the reference.
I only need the number, in %, no unit after it.

Look over these answered cases.
O=c1cc(-c2ccc(O)c(O)c2)oc2cc(O[C@@H]3O[C@H](CO[C@@H]4O[C@H](CO)[C@@H](O)[C@H](O)[C@H]4O)[C@@H](O)[C@H](O)[C@H]3O)cc(O)c12 [Compound VI, luteolin-7-O-β-D-gentiobioside]    −5.24
O=C(O)[C@H]1O[C@@H](Oc2cc(O)c3c(=O)cc(-c4ccc(O)cc4)oc3c2)[C@H](O)[C@@H](O)[C@@H]1O [IX, apigenin-7-O-β-D-glucuronide]    5.33
O=C(/C=C/c1ccc(O)c(O)c1)O[C@@H](C(=O)O)[C@@H](O)C(=O)O    −10.05
O=C(O)/C=C/c1ccc(O)c(O)c1    7.83
O=C(O)[C@H]1O[C@@H](Oc2cc(O)c3c(=O)cc(-c4ccc(O)c(O)c4)oc3c2)[C@H](O)[C@@H](O)[C@@H]1O [VII, luteolin-7-O-β-D-glucuronide]    8.01

# ---- query molecule ----
Fill blank: measured Long-Term Stability (−80 °C, 14 Days), RE of the molecule O=C(/C=C/c1ccc(O)c(O)c1)O[C@@H]1C[C@](O)(C(=O)O)C[C@@H](O)[C@H]1O [III, chlorogenic acid] is ____.
2.07
